# Tested on: SW-620 colon
# assay-explanation: NCI tumour cell line growth inhibition, 48 h
Reported TGI values follow for various molecules

| entry-smiles | TGI |
| --- | --- |
| O=c1c2cc(Br)cc(Br)c2nc(CCCl)n1-c1ccc(O)c([N+](=O)[O-])c1 | 36.2 µM |
| Cc1cc(C)c2c(n1)S(=O)(=O)N(CCCN1CCN(c3cccc(Cl)c3)CC1)/C(=C(\O)c1ccccc1)C2=O | > 100 µM |
| O=C(O)[C@@H]1OCCOCCO[C@@H](C(=O)O)[C@H](C(=O)O)OCCOCCO[C@H]1C(=O)O | > 90.1 µM |
